Sourced from PubChem BioAssay (NCI)

I'd be grateful if you could share measured TGI for these entries.
Tested on: SF-295 CNS
Assay: NCI tumour cell line growth inhibition, 48 h

Ask | Find TGI (SF-295 CNS) for the entry c1csc(-c2ccc(-c3ccc(-c4ccc(-c5cccs5)s4)s3)s2)c1
Reply | > 100 µM

Ask | Find TGI (SF-295 CNS) for the entry CC[C@@]1(O)C(=O)OCc2c1cc1n(c2=O)Cc2c-1nc1ccccc1c2/C=N\NC(=O)C(N)CC(C)C (stereo not given in full)
Reply | 0.694 µM

Ask | Find TGI (SF-295 CNS) for the entry CC1=CC2CC(C)=C(CC[C@]3(C)CC[C@H]([C@@H](C)C(=O)O)OO3)C(C)(C)C2CC1 (stereo not given in full)
Reply | 2.67 µM

Ask | Find TGI (SF-295 CNS) for the entry COc1ccc2c(c1)C(=O)c1c-2n(CCCN)c(=O)c2ccccc12
Reply | 0.657 µM

Ask | Find TGI (SF-295 CNS) for the entry C/C=C/[C@@]1(OC(=O)c2ccccc2)C[C@@H]2CCCC[C@@H]21
Reply | 33.3 µM

Ask | Find TGI (SF-295 CNS) for the entry C=C1C(=O)OC2/C=C(\C)C(OC(C)=O)C3OC3C(C)(O)CC(OC(=O)/C(C)=C/C)C12 (stereo not given)
Reply | 42.4 µM

Ask | Find TGI (SF-295 CNS) for the entry C=C(C)[C@@]1(O)O[C@H]2C[C@@]3(C)OC(=CC3=O)/C(C)=C\[C@@H]3OC(=O)[C@@]1(C)[C@H]32
Reply | 66.9 µM

Ask | Find TGI (SF-295 CNS) for the entry O=C(O)CCCl
Reply | > 5000 µM

Ask | Find TGI (SF-295 CNS) for the entry [O-]/[N+](=C\c1ccccc1)[C@H](COCc1ccccc1)c1ccccc1
Reply | > 100 µM

Ask | Find TGI (SF-295 CNS) for the entry COc1ccc(-c2[nH]ncc2-c2cc3c(c(OC)c2)OCC(=O)N3)cc1
Reply | 15.2 µM

Ask | Find TGI (SF-295 CNS) for the entry Nc1nc2c(=O)c3ccccc3sc2s1
Reply | > 100 µM

Ask | Find TGI (SF-295 CNS) for the entry CC12CC3C(CC1SCC(=O)O2)C3(C)C (stereo not given)
Reply | > 100 µM

Ask | Find TGI (SF-295 CNS) for the entry CC1CC2C3CC(F)C4=CC(=O)C=CC4(C)C3(F)C(O)CC2(C)C1(O)C(=O)COC(=O)C(C)(C)C (stereo not given)
Reply | > 100 µM

Ask | Find TGI (SF-295 CNS) for the entry COC(=O)[C@H](Cc1ccccc1)NC(=O)c1ccc(CNC(=O)/C=C/c2ccc(-c3ccccc3)cc2)cc1
Reply | 94.5 µM

Ask | Find TGI (SF-295 CNS) for the entry O=C(CSCC(=O)N/N=C/c1cc(I)cc(I)c1O)N/N=C/c1cc(I)cc(I)c1O
Reply | 47.1 µM

Ask | Find TGI (SF-295 CNS) for the entry Nc1nc(CCC(=O)Nc2cccc(C(F)(F)F)c2)cc(-c2cccc3ccccc23)n1
Reply | > 100 µM

Ask | Find TGI (SF-295 CNS) for the entry N#Cc1cccc(N2C(=O)c3c(c(-c4ccccc4)c(-c4ccc(Sc5ccc(-c6c(-c7ccccc7)c7c(c(-c8ccccc8)c6-c6ccccc6)C(=O)N(c6cccc(C#N)c6)C7=O)cc5)cc4)c(-c4ccccc4)c3-c3ccccc3)C2=O)c1
Reply | > 100 µM

Ask | Find TGI (SF-295 CNS) for the entry Cc1[nH]c2ncn(/N=C/c3ccccc3O)c(=N)c2c1Cc1ccccc1
Reply | > 100 µM

Ask | Find TGI (SF-295 CNS) for the entry COC(=O)N1CC2(CO)C3CC=C(C(=O)Nc4ccccc4Br)C2C1C3Br (stereo not given)
Reply | > 50 µM

Ask | Find TGI (SF-295 CNS) for the entry CCOc1ccc(NC(=O)CC2SC(=Nc3ccc(Cl)cc3)NC2=O)cc1 (stereo not given)
Reply | > 100 µM

Ask | Find TGI (SF-295 CNS) for the entry COc1cc2c(cc1O)C=NCC2
Reply | > 100 µM

Ask | Find TGI (SF-295 CNS) for the entry CC(C)(C)OC(=O)CN1CCNCCNCC1
Reply | > 100 µM

Ask | Find TGI (SF-295 CNS) for the entry COC(=O)C(=O)C(C(=O)Nc1cccc(C)c1C)C1Sc2ccccc2NC1=O (stereo not given)
Reply | > 25 µM

Ask | Find TGI (SF-295 CNS) for the entry O=C(c1ccccc1)c1ccc2c(c1)nc1n2C(c2c(Cl)cccc2Cl)SC1 (stereo not given)
Reply | > 100 µM

Ask | Find TGI (SF-295 CNS) for the entry CC1=C([Se]CC(OC(=O)[C@@H](CSSC(C)(C)C)NC(=O)OC(C)(C)C)C(=O)NC(C)(C)C)C(=O)c2ccccc2C1=O (stereo not given in full)
Reply | 3.19 µM

Ask | Find TGI (SF-295 CNS) for the entry O=C1c2ccccc2C2(O)Nc3cc(O)ccc3C12O (stereo not given)
Reply | > 100 µM

Ask | Find TGI (SF-295 CNS) for the entry c1ccc(SC2(Sc3ccccc3)CCCC2)cc1
Reply | > 100 µM

Ask | Find TGI (SF-295 CNS) for the entry CC[P+](C)(Cc1ccccc1)c1ccccc1 (stereo not given)
Reply | > 100 µM

Ask | Find TGI (SF-295 CNS) for the entry N=C(c1ccccc1)N(c1ccccc1)c1ccccc1
Reply | > 100 µM

Ask | Find TGI (SF-295 CNS) for the entry Cc1cc(C)nc(NC(N)=NCCc2ccccc2)n1
Reply | 5.44 µM

Ask | Find TGI (SF-295 CNS) for the entry C=C(Cn1c(=O)c2ccccc2c2ccccc21)c1ccc(C(=O)Nc2ccccc2N)cc1
Reply | > 100 µM

Ask | Find TGI (SF-295 CNS) for the entry O=C(Nc1c(O)[nH]c(=S)[nH]c1=O)c1ccccn1
Reply | > 100 µM

Ask | Find TGI (SF-295 CNS) for the entry O=C(c1ccccc1)c1c(NCC(O)CN2CCCC2)n(Cc2ccccc2)c(=O)n(Cc2ccccc2)c1=O (stereo not given)
Reply | 33.7 µM

Ask | Find TGI (SF-295 CNS) for the entry CC(=O)NC1C(OCc2ccccc2)OC(CO)C(O)C1OCC(=O)NC(C)C(=O)NC(CCC(=O)NCCCCNc1ccc([N+](=O)[O-])c2[nH]c3ccccc3c(=O)c12)C(N)=O (stereo not given)
Reply | > 100 µM

Ask | Find TGI (SF-295 CNS) for the entry O=S(=O)(Nc1ncccn1)c1ccc(N=Nc2ccc(O)c3ncccc23)cc1
Reply | 12 µM

Ask | Find TGI (SF-295 CNS) for the entry Cn1cc(-c2nonc2-c2c[nH]c3ccccc23)c2ccccc21
Reply | 2.97 µM

Ask | Find TGI (SF-295 CNS) for the entry COc1cc(CCc2cccnc2)cc(OC)c1OC
Reply | > 100 µM

Ask | Find TGI (SF-295 CNS) for the entry O=C1C2CCCCC2C(=O)N1n1c(Cc2ccc(Cl)cc2)n[nH]c1=O (stereo not given)
Reply | > 100 µM

Ask | Find TGI (SF-295 CNS) for the entry CN(C)CC(/C(Cc1ccccc1)=N\NC(=O)C[n+]1ccccc1)c1ccccc1 (stereo not given)
Reply | > 100 µM

Ask | Find TGI (SF-295 CNS) for the entry Cc1nc2sccn2c1/C=C1/C(=O)Nc2ccccc21
Reply | > 26.5 µM

* * *

System: SK-MEL-2 melanoma
Test: NCI tumour cell line growth inhibition, 48 h
property.measured: log10(TGI) (log10 of the value in µM)
Would you kindly interpret these values as log10 of TGI expressed in µM?

Ask | Which log10(TGI) value is on record for CCCN(CCC)CCCNCc1cc(I)cc(C)c1O ?
Reply | 1.56

Ask | Which log10(TGI) value is on record for COc1cc(-c2nn3c(/C=C4/C(=O)Nc5ccccc54)c(-c4ccc(C)cc4)nc3s2)cc(OC)c1OC ?
Reply | 1.49

Ask | Which log10(TGI) value is on record for CCCCCCCCCCCOC(=S)NC(C)C ?
Reply | 1.60

Ask | Which log10(TGI) value is on record for COC1=CC(c2ccc[nH]2)=N/C1=C\c1[nH]c(C)c(C(=O)OCc2ccccc2)c1C ?
Reply | -0.71

Ask | Which log10(TGI) value is on record for C=C(C)[C@@H]1CC[C@]2(C(=O)O)CC[C@]3(C)[C@H](CC[C@@H]4[C@@]5(C)CC(=O)C(C)(C)[C@@H]5CC[C@]43C)[C@@H]12 ?
Reply | 0.99

* * *

System: OVCAR-3 ovarian
Test: NCI tumour cell line growth inhibition, 48 h; in the data active = GI50 below about 0.43 µM; inactive = the rest
Respond only with the outcome that fits, drawn from TRUE = active, FALSE = inactive

Ask | For O=C(c1ccccc1)c1c(NCC(O)CN2CCCC2)n(Cc2ccccc2)c(=O)n(Cc2ccccc2)c1=O (stereo unspecified) , which call appears in the assay record?
Reply | FALSE

Ask | For CCC[CH2][Sn]([CH2]CCC)([O]C(=O)c1c(F)cccc1F)[O]C(=O)c1c(F)cccc1F , which call appears in the assay record?
Reply | FALSE

Ask | For COc1ccc2c(c1)C(=O)c1c-2n(CCCN)c(=O)c2ccccc12 , which call appears in the assay record?
Reply | TRUE

Ask | For Cc1c2cnccc2c(C)c2c1c1cc(C3OCCCO3)ccc1n2C , which call appears in the assay record?
Reply | TRUE

Ask | For Cc1ccccc1NC(=S)Nc1ccccn1 , which call appears in the assay record?
Reply | FALSE

Ask | For O=C(Nc1ccc(Cl)cc1Cl)c1ccc(NC2=C(Cl)C(=O)N(Cc3ccccc3)C2=O)cc1 , which call appears in the assay record?
Reply | FALSE

Ask | For COC1=CC(c2ccc[nH]2)=N/C1=C\c1[nH]c(C)c(C(=O)OCc2ccccc2)c1C , which call appears in the assay record?
Reply | TRUE

Ask | For CC/C(Cc1ccccc1)=C(\c1ccc(OCCN2CCCCCC2)cc1)c1ccc(OC(=O)NCc2ccccc2)cc1 , which call appears in the assay record?
Reply | FALSE

Ask | For COc1cc2c(cc1OCCCN1CCN(CCCOc3cc4c(cc3OC)C(=O)N3CCC[C@H]3C=N4)CC1)C=CC(C)(C)O2 , which call appears in the assay record?
Reply | FALSE

Ask | For C=C1C(=O)O[C@H]2[C@H]1CC/C(CNC(=O)/C=C/c1ccc(Br)cc1)=C\CC[C@@]1(C)O[C@@H]21 , which call appears in the assay record?
Reply | FALSE

Ask | For Cn1cc(-c2nonc2-c2c[nH]c3ccccc23)c2ccccc21 , which call appears in the assay record?
Reply | TRUE
